Items are presented alongside their recorded Tmax.
assay: Randomized crossover quantitative trial: plasma pharmacokinetics of nine ingredients after rikkunshito 2.5, 5.0 or 7.5 g; settings: human, plasma, po, 5 g, Median t max (range), rikkunshito 5.0 g single oral, n = 19; median (minimum–maximum)
# value in h; strip the unit string

Smiles string: O=C1C[C@@H](c2ccc(O)cc2)Oc2cc(O)cc(O)c21
Unit annotation: h
Tmax: 4
--
Smiles string: COc1ccc(-c2oc3c(OC)c(OC)c(OC)c(OC)c3c(=O)c2OC)cc1OC
Unit annotation: h
Tmax: 1

The reported Tmax of the molecule `O=C(/C=C/c1ccc(O)cc1)c1ccc(O)cc1O` was 0.25

The reported Tmax of the molecule `O=C(O)/C=C/C#CC#C/C=C/c1ccco1` was 0.25

The reported Tmax of the molecule `CC1(C)[C@@H](O)CC[C@]2(C)[C@H]3C(=O)C=C4[C@@H]5C[C@@](C)(C(=O)O)CC[C@]5(C)CC[C@@]4(C)[C@]3(C)CC[C@@H]12` was 8

* * *

assay: clinical; conditions: human, in vivo, po, Median t max (range), rikkunshito 2.5 g single oral, n = 21; median (minimum–maximum)
Quantity name: Tmax (h)
# value in h; strip the unit string

The reported Tmax of the molecule C=C(CC[C@@H](C(=O)O)[C@H]1[C@H](O)C[C@@]2(C)C3=C(CC[C@]12C)[C@@]1(C)CC[C@H](OC(C)=O)C(C)(C)[C@@H]1CC3)C(C)C [Pachymic acid] was 6

* * *

Items are presented alongside their recorded concentration at 8 h.
Experiment: Exploratory trial: ingredients in β-glucuronidase (enzyme)-treated plasma
Type: in vivo, human
Conditions: human, plasma, oral; β-glucuronidase-treated; 8 h; rikkunshito 7.5 g; mean ± S.D., n = 4; read-out: Plasma concentration in enzyme-treated plasma, 8 h
Description: In the first exploratory trial, 20-mL blood samples were collected from the cutaneous vein in the subjects’ forearm via a blood sampling tube that contained heparin at 0 (preadministration), 0.5, 1, 2, 4, and 8 h after a single oral administration of rikkunshito (Lot E24652). […] For quantification of 30 ingredients other than atractylodin and synephrine, 25 µL of standard solution or methanol was added to 500 µL plasma or urine samples followed by mixing. […]
# value in ng/mL; strip the unit string

Would you please look over these solved cases?
Compound: COc1c(CC=C(C)C)c(O)cc2oc(=O)c(-c3ccc(O)cc3O)cc12 [Glycycoumarin]
concentration at 8 h [ng/mL]: 0.222
//
Compound: O=C1C[C@@H](c2ccc(O)cc2)Oc2cc(O)cc(O)c21 [Naringenin]
concentration at 8 h [ng/mL]: 0.156

The reported concentration at 8 h of the compound O=C(/C=C/c1ccc(O)cc1)c1ccc(O)cc1O [Isoliquiritigenin] was 0.0238

* * *

Test: Stability of ingredients in gastric pH solution (pH 1.2, 37°C)
Type: physicochemical
Conditions: rikkunshito in acidic solution (pH 1.2) at 37°C, 0.5 h
Description: Rikkunshito gradually dissolved in acidic solution (pH 1.2) at 37°C, and the concentration of atractylodin after adding 0.25, 0.5, 1, and 2 h was measured by gas chromatography–mass spectrometry.
Items are presented alongside their recorded Stability in gastric pH solution, Quantitative value.
# value in ng/mL; strip the unit string

Would you please look over these solved cases?
Compound: C=C(CC[C@@H](C(=O)O)[C@H]1[C@H](O)C[C@@]2(C)C3=C(CC[C@]12C)[C@@]1(C)CC[C@H](OC(C)=O)C(C)(C)[C@@H]1CC3)C(C)C
Test value: 40.2
--
Compound: CC(C)=CCC[C@](C)(O)[C@H]1CC[C@]2(C)[C@@H]1[C@H](O)C[C@@H]1[C@@]3(C)CC[C@H](O)C(C)(C)[C@@H]3[C@@H](O[C@@H]3O[C@H](CO)[C@@H](O)[C@H](O)[C@H]3O[C@@H]3O[C@@H](C)[C@H](O)[C@@H](O)[C@H]3O)C[C@]12C [ginsenoside Rg2, Ginsenoside Rg2]
Test value: 121
--
Compound: CCCCCCCCC[C@H](O)CC(=O)CCc1ccc(O)c(OC)c1 [[10]-gingerol, [10]-Gingerol]
Test value: 8.07

Consider now this further compound.
The reported Stability in gastric pH solution, Quantitative value of the compound CCCCC/C=C/C(=O)CCc1ccc(O)c(OC)c1 [[6]-Shogaol, [6]-Shogaol] was 17.9

* * *

assay: clinical; conditions: human, in vivo, po, Median t max (range), rikkunshito 7.5 g single oral, n = 19; median (minimum–maximum)
Quantity name: Tmax

The reported Tmax of the compound C=C(CC[C@@H](C(=O)O)[C@H]1[C@H](O)C[C@@]2(C)C3=C(CC[C@]12C)[C@@]1(C)CC[C@H](OC(C)=O)C(C)(C)[C@@H]1CC3)C(C)C [Pachymic acid] was > 3 h

* * *

experiment: Exploratory trial: amount of rikkunshito ingredients in urine; type: in vivo, human; conditions: preadministration (between dinner and bedtime); mean ± S.D., n = 4
Quantity name: Amount in urine, Pre

Compound: O=C(/C=C/c1ccc(O)cc1)c1ccc(O)cc1O [Isoliquiritigenin]
Amount in urine, Pre: 0.688 ± 1.38 ng

Compound: C/C=C/C#CC#C/C=C/c1ccco1 [Atractylodin]
Amount in urine, Pre: BQL

Compound: O=C1C[C@@H](c2ccc(O)cc2)Oc2cc(O)cc(O)c21 [Naringenin]
Amount in urine, Pre: BQL

Compound: CC1(C)[C@@H](O[C@@H]2O[C@H](C(=O)O)[C@@H](O)[C@H](O)[C@H]2O)CC[C@]2(C)[C@H]3C(=O)C=C4[C@@H]5C[C@@](C)(C(=O)O)CC[C@]5(C)CC[C@@]4(C)[C@]3(C)CC[C@@H]12 [Glycyrrhetic acid 3-O-glucuronide, Glycyrrhetinic acid 3-O-glucuronide]
Amount in urine, Pre: BQL

Compound: COc1ccc([C@@H]2CC(=O)c3c(O)cc(O[C@@H]4O[C@H](CO[C@@H]5O[C@@H](C)[C@H](O)[C@@H](O)[C@H]5O)[C@@H](O)[C@H](O)[C@H]4O)cc3O2)cc1O [Hesperidin]
Amount in urine, Pre: 28.9 ± 57.8 ng

Compound: COc1c(CC=C(C)C)c(O)cc2oc(=O)c(-c3ccc(O)cc3O)cc12 [Glycycoumarin]
Amount in urine, Pre: 4.61 ± 4.20 ng

Consider now this further compound.
The reported Amount in urine, Pre of the compound CCCCC/C=C/C(=O)CCc1ccc(O)c(OC)c1 [[6]-Shogaol, [6]-Shogaol] was 16.3 ± 26.4 ng

* * *

assay: Exploratory trial: plasma concentration of rikkunshito ingredients after single oral rikkunshito 7.5 g; format: in vivo; settings: human, in vivo; 8 h after single oral rikkunshito 7.5 g; mean ± S.D., n = 4; read-out: Plasma concentration, 8 h
Quantity name: concentration at 8 h (ng/mL)
# value in ng/mL; strip the unit string

The reported concentration at 8 h of the compound `C/C=C/C#CC#C/C=C/c1ccco1` was 0.295

* * *

assay: Randomized crossover quantitative trial: plasma pharmacokinetics of nine ingredients after rikkunshito 2.5, 5.0 or 7.5 g; conditions: human, plasma, po, 2.5 g, C max, rikkunshito 2.5 g single oral, n = 21; geometric mean (95% CI)
Items are presented alongside their recorded Cmax.
# value in ng/mL; strip the unit string

Would you please look over these solved cases?
Compound: O=C(O)/C=C/C#CC#C/C=C/c1ccco1 [Atractylodin carboxylic acid]
Cmax, ng/mL: 4.45
//
Compound: O=C1C[C@@H](c2ccc(O)cc2)Oc2cc(O)cc(O)c21 [Naringenin]
Cmax, ng/mL: 0.376
//
Compound: CC1(C)[C@@H](O)CC[C@]2(C)[C@H]3C(=O)C=C4[C@@H]5C[C@@](C)(C(=O)O)CC[C@]5(C)CC[C@@]4(C)[C@]3(C)CC[C@@H]12 [18β-Glycyrrhetinic acid]
Cmax, ng/mL: 23
//
Compound: O=C(/C=C/c1ccc(O)cc1)c1ccc(O)cc1O [Isoliquiritigenin]
Cmax, ng/mL: 0.0205

The reported Cmax of the compound COc1ccc(-c2oc3c(OC)c(OC)c(OC)c(OC)c3c(=O)c2OC)cc1OC [Heptamethoxyflavone, 3,3′,4′,5,6,7,8-heptamethoxyflavone] was 0.0388

* * *

assay: clinical; settings: human, in vivo, po, Median t max (range), rikkunshito 5.0 g single oral, n = 19; median (minimum–maximum)
Quantity name: Tmax (h)
# value in h; strip the unit string

The reported Tmax of the compound C=C(CC[C@@H](C(=O)O)[C@H]1[C@H](O)C[C@@]2(C)C3=C(CC[C@]12C)[C@@]1(C)CC[C@H](OC(C)=O)C(C)(C)[C@@H]1CC3)C(C)C [Pachymic acid] was 6

* * *

assay: Exploratory trial: plasma concentration of rikkunshito ingredients after single oral rikkunshito 7.5 g; assay type: in vivo; conditions: in vivo, po
Quantity name: Plasma concentration, 8 h

Would you please look over these solved cases?
Compound: CC1(C)[C@@H](O[C@@H]2O[C@H](C(=O)O)[C@@H](O)[C@H](O)[C@H]2O)CC[C@]2(C)[C@H]3C(=O)C=C4[C@@H]5C[C@@](C)(C(=O)O)CC[C@]5(C)CC[C@@]4(C)[C@]3(C)CC[C@@H]12 [Glycyrrhetic acid 3-O-glucuronide, Glycyrrhetinic acid 3-O-glucuronide]
Plasma concentration, 8 h: 0.247 ± 0.0622 ng/mL
--
Compound: CC(C)=CCC[C@](C)(O[C@@H]1O[C@H](CO[C@@H]2O[C@H](CO)[C@@H](O)[C@H](O)[C@H]2O)[C@@H](O)[C@H](O)[C@H]1O)[C@H]1CC[C@]2(C)[C@@H]1[C@H](O)C[C@@H]1[C@@]3(C)CC[C@H](O[C@@H]4O[C@H](CO)[C@@H](O)[C@H](O)[C@H]4O[C@@H]4O[C@H](CO)[C@@H](O)[C@H](O)[C@H]4O)C(C)(C)[C@@H]3CC[C@]12C [Ginsenoside Rb1]
Plasma concentration, 8 h: BQL
--
Compound: CC(C)=CCC[C@](C)(O[C@@H]1O[C@H](CO[C@@H]2O[C@@H](CO)[C@H](O)[C@H]2O)[C@@H](O)[C@H](O)[C@H]1O)[C@H]1CC[C@]2(C)[C@@H]1[C@H](O)C[C@@H]1[C@@]3(C)CC[C@H](O[C@@H]4O[C@H](CO)[C@@H](O)[C@H](O)[C@H]4O[C@@H]4O[C@H](CO)[C@@H](O)[C@H](O)[C@H]4O)C(C)(C)[C@@H]3CC[C@]12C [Ginsenoside Rc]
Plasma concentration, 8 h: BQL
--
Compound: O=C1C[C@@H](c2ccc(O)cc2)Oc2cc(O)cc(O)c21
Plasma concentration, 8 h: BQL

Consider now this further compound.
The reported Plasma concentration, 8 h of the compound `COc1ccc(-c2cc(=O)c3c(OC)c(OC)c(OC)c(OC)c3o2)cc1` was BQL
